# Test system: MCF7 breast
# TEST_SUMMARY: NCI-60 one-dose screen, 48 h (100 = growth as untreated, 0 = no growth, -100 = all killed)
# RECORDED_CONDITIONS: 10 µM unless noted
This is part of a sample that, as a whole, favours compounds with a hit. Of some 83,000 tested, about 20% had one in any assay.
growth: recorded values

- MOLECULE: "Clc1nnc2c3ccccc3ccn12"
  growth / %: 107
- MOLECULE: "N=C(N)c1ccc(NCCNc2ccc(C(=N)N)cc2)cc1"
  growth / %: 101
- MOLECULE: "CS(=O)(=O)c1ccc(C(=O)N/N=C/c2ccccc2O)cc1"
  growth / %: 22.5
- MOLECULE: "CC(C)[C@@]12C[C@@H](OC(=O)C3CO3)[C@@](C)(O1)[C@@H]1CC[C@@H](C)[C@H]1[C@@H]2OC(=O)/C=C/c1ccccc1 (stereo not given in full)"
  growth / %: 85.7
- MOLECULE: "COc1ccc(-c2cc(C(=O)Nc3ccc(C)cc3)nc3[nH]c(=O)sc23)cc1"
  growth / %: 71.6

====

# Tested on: A498 renal
# TEST_SUMMARY: NCI-60 one-dose screen, 48 h (100 = growth as untreated, 0 = no growth, -100 = all killed)
# RECORDED_CONDITIONS: 10 µM unless noted
The panel holds about 83,000 compounds, 20% with a hit somewhere; the sample as a whole holds those more often.
Reported growth values for a set of compounds

- COMPOUND: "O=C(Nc1ccc(Br)cc1)Nc1cccc(Br)c1"
  EXPERIMENTAL_SYSTEM: "A498 renal"
  growth [%]: 21.4
- COMPOUND: "CCOC(=O)c1ccc2c(c1)nc(-c1ccc(Cl)cc1)n2-c1cc(C(C)(C)C)[nH]n1"
  EXPERIMENTAL_SYSTEM: "A498 renal"
  growth [%]: 45.3
- COMPOUND: "COc1ccc(C2c3cccn3-c3ccccc3N2C(C)=O)cc1 (centres undefined)"
  EXPERIMENTAL_SYSTEM: "A498 renal"
  growth [%]: 86
- COMPOUND: "CC[C@]1(O)C[C@H]2CN(CCc3c([nH]c4ccccc34)C(C(=O)OC)(c3cc4c(cc3OC)N(C)[C@H]3[C@@](O)(C(=O)OC)[C@H](OC(C)=O)[C@]5(CC)[C@@H]6C[C@@H]6CN6CC[C@]43[C@@H]65)C2)C1 (some centres undefined)"
  EXPERIMENTAL_SYSTEM: "A498 renal"
  growth [%]: 16.6

====

# System: KM12 colon
# TEST_SUMMARY: NCI-60 one-dose screen, 48 h
# RECORDED_CONDITIONS: 10 µM unless noted
# Description: Growth inhibition of the KM12 human tumor cell line is measured as a screen for anti-cancer activity. Cells are grown in 96 well plates and exposed to the test compound for 48 hours. Compounds are tested at a single concentration, which is 10^-5 M for most compounds. The reported endpoint is percent growth (GI% or GIPRCNT), where numbers from 0 - 100% represent growth inhibition, and numbers from -100% - 0 represent cell death. For example, a value of 40 represents 60% growth inhibition. […]
About 83,000 compounds went through this panel and 20% of them were active in at least one assay; those are over-represented in the sample as a whole. Calls of active or inactive are those of the source. How the source made its calls: active means growth percent below 10; inactive means the rest.
Classes used: true (1) (active), false (0) (inactive)

- COMPOUND: "CC(C)(C)c1ccc(OC(=O)Nc2ccccc2)cc1"
  CLASSIFICATION: "false (0)"
- COMPOUND: "COc1cc2c(cc1OC)-c1cc(OC)c(OC)cc1C(CN(C)C)C2 (configuration not stated)"
  CLASSIFICATION: "false (0)"
- COMPOUND: "CCOC(=O)Nc1ccc2nc(Sc3ccc(Cl)cc3)sc2c1"
  CLASSIFICATION: "false (0)"
- COMPOUND: "COc1ccc(C(=O)O)cc1.[Ag]"
  CLASSIFICATION: "false (0)"
- COMPOUND: "COc1cc(C2CC(=O)Nc3c2cnn3C)cc(OC)c1OC (configuration not stated)"
  CLASSIFICATION: "false (0)"
- COMPOUND: "COC(=O)[C@H](Cc1cn(C)cn1)NC(=O)[C@H](CC(C)C)NC(=O)Nc1cc(C(F)(F)F)cc(C(F)(F)F)c1"
  CLASSIFICATION: "true (1)"
- COMPOUND: "Cn1c(=O)c2c(nc(N/N=C/c3ccccc3Cl)n2C)n(C)c1=O"
  CLASSIFICATION: "false (0)"
- COMPOUND: "O=C(CCCN1CCC(O)(c2ccc(Br)cc2)CC1)c1ccc(F)cc1"
  CLASSIFICATION: "false (0)"
- COMPOUND: "CC(C)(C)[Si](C)(C)OC1[C@@H](CNC(N)=O)O[C@@H](n2cnc3c(NC(=O)Nc4ccccc4)ncnc32)[C@H]1O[Si](C)(C)C(C)(C)C (some centres not stated)"
  CLASSIFICATION: "false (0)"
- COMPOUND: "COc1ccc(/C=C/C(=O)CCC(=O)O)cc1OC"
  CLASSIFICATION: "false (0)"
- COMPOUND: "COc1cc2c(c(OC)c1O)C(=O)C(OC)C(c1ccc(O)c(O)c1)O2 (configuration not stated)"
  CLASSIFICATION: "true (1)"
- COMPOUND: "CC1CCCN(CCCCOc2ccc(-c3ccc(C#N)cc3)cc2)C1 (configuration not stated)"
  CLASSIFICATION: "false (0)"
- COMPOUND: "C[N+](C)(C)CCCCCCCCCC[N+](C)(C)C"
  CLASSIFICATION: "false (0)"
- COMPOUND: "O=C(N/N=C/c1ccc([N+](=O)[O-])cc1)c1ccccc1Nc1ccnc(C(F)(F)F)c1"
  CLASSIFICATION: "false (0)"
- COMPOUND: "Cc1cc([N+](=O)[O-])c(C)cc1N"
  CLASSIFICATION: "false (0)"
- COMPOUND: "FC(F)(F)c1nn[nH]n1"
  CLASSIFICATION: "false (0)"
- COMPOUND: "O=c1c2cc(Br)cc(Br)c2nc(-c2ccc(Cl)cc2)n1/N=C/c1cccc(F)c1"
  CLASSIFICATION: "false (0)"
- COMPOUND: "O=C(CC(=O)c1ccccc1F)Nc1ccc([N+](=O)[O-])cc1"
  CLASSIFICATION: "false (0)"
- COMPOUND: "COc1cc(NC(=O)CSc2nc3ccc(Cl)cc3c(=O)n2-c2ccccc2)cc(OC)c1OC"
  CLASSIFICATION: "false (0)"
- COMPOUND: "O=S1(=O)NCCCN1CCNc1nccc(-c2c(-c3cccc(O)c3)nc3sccn23)n1"
  CLASSIFICATION: "false (0)"
- COMPOUND: "COc1cc(/C=C/c2cc(/C=C/c3ccc(O)c(OC)c3)n(C(=O)c3ccccc3Br)n2)ccc1O"
  CLASSIFICATION: "true (1)"
- COMPOUND: "COc1cccc(-c2nc3sccn3c2-c2ccnc(NCCN3CCCN(C)S3(=O)=O)n2)c1"
  CLASSIFICATION: "false (0)"
